Assay: Oral bioavailability in mouse
Format: ADME, organism-based
Details: in vivo
Outcome Measure: bioavailability (%)
One number for each entry, in %.

Enquiry: Using the record for CCc1cc(COc2cc(C(=O)N3CCC[C@@H](N)C3)nn2-c2ccc(C#N)cc2)on1 , report its bioavailability.
Return: 38

----------
Assay: Half life in human microsomes
Type: ADME, Microsome
Outcome Measure: half-life (h)
Answers are plain numbers, in h.

Take a look at these entries with their results.
[[record]]
compound = "N#Cc1ccc(-n2nc(C(=O)N3CCC[C@@H](N)C3)cc2OCC(O)C(F)(F)F)cc1 (stereo partly drawn)"
outcome_measure = "half-life"
readout_number = 4.17

[[record]]
compound = "CCc1cc(COc2cc(C(=O)N3CCC[C@@H](N)C3)nn2-c2ccc(C#N)cc2)on1"
outcome_measure = "half-life"
readout_number = 4.17


In the following, a different compound is considered.
Enquiry: Using the record for Cc1cc(COc2cc(C(=O)N3CCC[C@@H](N)C3)nn2-c2ccc(C#N)cc2)on1 , report its half-life.
Return: 3.35
